Below is a list of entries, each paired with its recorded GI50 value.
System: UACC-257
assay info: NCI tumour cell line growth inhibition, 48 h
Activity calls are given as the source filed them. No stated cut-off is given here; in the data, active = GI50 up to about 1.1 µM and inactive = higher.

compound	test system	GI50
CC(C)NC(=O)OCc1c(COC(=O)NC(C)C)c(-c2cc[n+](COC(=O)C(C)C)cc2)n2c1CCC2	UACC-257	> 100 µM (inactive)
O=C1CSC(c2ccc([N+](=O)[O-])cc2)N1c1ccc(-c2ccc(-n3c(-c4ccccc4)nc4ccccc4c3=O)cc2)cc1 (stereo not drawn)	UACC-257	> 100 µM (inactive)
COc1cccc(N2C(=O)C3c4[nH]c5ccc(C)cc5c4C4CCC(C)CC4C3C2=O)c1 (stereo not drawn)	UACC-257	> 100 µM (inactive)
CCN(CC)c1ccc(/N=C2/C=CC(=C(C#N)C#N)c3ccccc32)c(C)c1	UACC-257	2.16 µM (inactive)
O=[N+]([O-])c1cc(Cl)cc2cc(Cl)cnc12	UACC-257	61.4 µM (inactive)
CCN(CCCN(CC)C(=O)Nc1c(C)cccc1C)C(=O)Nc1c(C)cccc1C	UACC-257	> 100 µM (inactive)

Field request: GI50 | item: O=C1C(c2ccc(Br)cc2)=[N+]([O-])c2ccccc21
11.3 µM (inactive)

Requested field: GI50. Item: O=C(NC/C=C/Br)NC1CCNc2ccccc21 (stereo not drawn)
21.8 µM (inactive)

* * *

Tested on: CCRF-CEM
assay info: NCI tumour cell line growth inhibition, 48 h
Activity calls are given as the source filed them. Cut-off read from the data, not from the text of the source: active = GI50 up to about 1.1 µM and inactive = higher.
quantity kind: GI50

compound	test system	readout value
Cc1ccc(S(=O)(=O)SCc2ccccc2)cc1	CCRF-CEM	2.33 µM (inactive)

For CCRF-CEM, provide GI50 of c1ccc2c(c1)Sc1ccccc1N2C1CN2CCC1CC2 (stereo not drawn) please.
16.5 µM (inactive)

Request: GI50, test system CCRF-CEM, entry Cc1cc(=O)[nH]c(-n2[nH]c(C)c(CCO)c2=O)n1
> 100 µM (inactive)

Entry source: ChEMBL document CHEMBL1201862
